assay: Half life in Sprague-Dawley rat at 1 mg/kg, iv
Assay type: ADME, organism-based
Set-up: dose 1 mg/kg, route intravenous
assayContext: in vivo
testReadout: half-life (h)

>  <moleculeSmiles>
COc1nccc2c(=O)n(C)c(-c3ccc(OC4CCN(C5CCC5)CC4)cc3)nc12

>  <assayResult>
2

$$$$

###

system: Histamine H2 receptor (Homo sapiens, UniProt P25021)
Sequence (P25021 whole entry): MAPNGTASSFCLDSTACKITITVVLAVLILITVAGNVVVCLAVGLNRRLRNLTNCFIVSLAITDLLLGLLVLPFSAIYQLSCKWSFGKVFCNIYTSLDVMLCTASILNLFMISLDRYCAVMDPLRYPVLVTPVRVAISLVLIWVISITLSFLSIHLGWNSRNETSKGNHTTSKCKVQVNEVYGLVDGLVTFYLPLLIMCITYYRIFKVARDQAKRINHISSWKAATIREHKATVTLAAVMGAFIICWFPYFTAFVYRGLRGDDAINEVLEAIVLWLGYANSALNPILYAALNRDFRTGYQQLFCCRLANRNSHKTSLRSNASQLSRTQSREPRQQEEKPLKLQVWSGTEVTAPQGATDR

>  <moleculeSmiles>
COc1nccc2c(=O)n(C)c(-c3ccc(OC4CCN(C5CCC5)CC4)cc3)nc12

>  <system>
Histamine H2 receptor (Homo sapiens, UniProt P25021)

>  <IC50>
> 10 µM

$$$$

###

Tested on: Rattus norvegicus
assay: Plasma concentration in Sprague-Dawley rat at 10 mg/kg, po
Type: ADME, organism-based
Design: dose 10 mg/kg, route oral
assayContext: in vivo

>  <moleculeSmiles>
COc1nccc2c(=O)n(C)c(-c3ccc(OC4CCN(C5CCC5)CC4)cc3)nc12

>  <concentration [nM]>
2080

$$$$

###

system: Alpha-1A adrenergic receptor (Homo sapiens, UniProt P35348)
Sequence (P35348 whole entry): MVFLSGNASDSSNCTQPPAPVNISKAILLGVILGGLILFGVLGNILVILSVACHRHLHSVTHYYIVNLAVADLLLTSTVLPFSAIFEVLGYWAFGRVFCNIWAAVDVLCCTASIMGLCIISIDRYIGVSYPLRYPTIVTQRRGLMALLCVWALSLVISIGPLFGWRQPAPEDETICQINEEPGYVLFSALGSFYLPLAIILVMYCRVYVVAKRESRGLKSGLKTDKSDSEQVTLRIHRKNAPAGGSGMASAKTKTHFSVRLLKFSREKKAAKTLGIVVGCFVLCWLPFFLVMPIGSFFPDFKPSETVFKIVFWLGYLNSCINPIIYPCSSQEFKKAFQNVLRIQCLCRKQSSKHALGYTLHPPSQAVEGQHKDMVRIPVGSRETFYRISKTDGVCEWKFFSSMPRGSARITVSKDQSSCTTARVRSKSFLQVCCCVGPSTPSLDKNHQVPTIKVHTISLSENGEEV
assay: Displacement of [3H]prazosin from human adrenergic alpha1A receptor expressed in LMtk- cells
testReadout: IC50 (µM)

>  <moleculeSmiles>
COc1ccc2nc(-c3ccc(OC4CCN(C5CCC5)CC4)cc3)n(C)c(=O)c2c1

>  <system>
Alpha-1A adrenergic receptor (Homo sapiens, UniProt P35348)

>  <unitAbbrev>
µM

>  <modifierSign>
=

>  <assayResult>
5.9

$$$$
>  <moleculeSmiles>
COc1cccc2nc(-c3ccc(OC4CCN(C5CCC5)CC4)cc3)n(C)c(=O)c12

>  <system>
Alpha-1A adrenergic receptor (Homo sapiens, UniProt P35348)

>  <unitAbbrev>
µM

>  <modifierSign>
=

>  <assayResult>
4.2

$$$$
>  <moleculeSmiles>
Cn1c(-c2ccc(OC3CCN(C4CCC4)CC3)cc2)nc2ccccc2c1=O

>  <system>
Alpha-1A adrenergic receptor (Homo sapiens, UniProt P35348)

>  <unitAbbrev>
µM

>  <modifierSign>
=

>  <assayResult>
6.3

$$$$
>  <moleculeSmiles>
Cc1nc2ccccc2c(=O)n1-c1ccc(OCCCN2CCCCC2)cc1

>  <system>
Alpha-1A adrenergic receptor (Homo sapiens, UniProt P35348)

>  <unitAbbrev>
µM

>  <modifierSign>
=

>  <assayResult>
6.5

$$$$
>  <moleculeSmiles>
Cn1c(-c2ccc(OCCCN3CCCC3)cc2)nc2ccccc2c1=O

>  <system>
Alpha-1A adrenergic receptor (Homo sapiens, UniProt P35348)

>  <unitAbbrev>
µM

>  <modifierSign>
=

>  <assayResult>
2.2

$$$$
>  <moleculeSmiles>
COc1nccc2c(=O)n(C)c(-c3ccc(OC4CCN(C5CCC5)CC4)cc3)nc12

>  <system>
Alpha-1A adrenergic receptor (Homo sapiens, UniProt P35348)

>  <unitAbbrev>
µM

>  <modifierSign>
>

>  <assayResult>
10

$$$$
>  <moleculeSmiles>
COc1ccc2c(=O)n(C)c(-c3ccc(OC4CCN(C5CCC5)CC4)cc3)nc2c1

>  <system>
Alpha-1A adrenergic receptor (Homo sapiens, UniProt P35348)

>  <unitAbbrev>
µM

>  <modifierSign>
>

>  <assayResult>
10

$$$$
>  <moleculeSmiles>
Cn1c(-c2ccc(OC3CCN(C4CCC4)CC3)cc2)nc2c(Cl)cccc2c1=O

>  <system>
Alpha-1A adrenergic receptor (Homo sapiens, UniProt P35348)

>  <unitAbbrev>
µM

>  <modifierSign>
=

>  <assayResult>
6.5

$$$$
>  <moleculeSmiles>
Cn1c(-c2ccc(OCCCN3CCCCC3)cc2)nc2ccccc2c1=O

>  <system>
Alpha-1A adrenergic receptor (Homo sapiens, UniProt P35348)

>  <unitAbbrev>
µM

>  <modifierSign>
=

>  <assayResult>
2.9

$$$$
>  <moleculeSmiles>
Cn1c(-c2ccc(OC3CCN(C4CCC4)CC3)cc2)nc2c(C(F)(F)F)cccc2c1=O

>  <system>
Alpha-1A adrenergic receptor (Homo sapiens, UniProt P35348)

>  <unitAbbrev>
µM

>  <modifierSign>
>

>  <assayResult>
10

$$$$
>  <moleculeSmiles>
Cn1c(-c2ccc(OC3CCN(C4CCC4)CC3)cc2)nc2c(F)cccc2c1=O

>  <system>
Alpha-1A adrenergic receptor (Homo sapiens, UniProt P35348)

>  <unitAbbrev>
µM

>  <modifierSign>
=

>  <assayResult>
4.5

$$$$
>  <moleculeSmiles>
COc1cccc2c(=O)n(C)c(-c3ccc(OC4CCN(C5CCC5)CC4)cc3)nc12

>  <system>
Alpha-1A adrenergic receptor (Homo sapiens, UniProt P35348)

>  <unitAbbrev>
µM

>  <modifierSign>
>

>  <assayResult>
10

$$$$
>  <moleculeSmiles>
CCn1c(-c2ccc(OCCCN3CCCCC3)cc2)nc2ccccc2c1=O

>  <system>
Alpha-1A adrenergic receptor (Homo sapiens, UniProt P35348)

>  <unitAbbrev>
µM

>  <modifierSign>
=

>  <assayResult>
1.3

$$$$
>  <moleculeSmiles>
Cn1c(-c2ccc(OC3CCN(C4CCCC4)CC3)cc2)nc2ccccc2c1=O

>  <system>
Alpha-1A adrenergic receptor (Homo sapiens, UniProt P35348)

>  <unitAbbrev>
µM

>  <modifierSign>
=

>  <assayResult>
6.2

$$$$
>  <moleculeSmiles>
O=c1c2ccccc2nc(-c2ccc(OCCCN3CCCCC3)cc2)n1Cc1ccccc1

>  <system>
Alpha-1A adrenergic receptor (Homo sapiens, UniProt P35348)

>  <unitAbbrev>
µM

>  <modifierSign>
=

>  <assayResult>
7.2

$$$$
>  <moleculeSmiles>
O=c1c2ccccc2nc(-c2ccc(OCCCN3CCCCC3)cc2)n1-c1ccccc1

>  <system>
Alpha-1A adrenergic receptor (Homo sapiens, UniProt P35348)

>  <unitAbbrev>
µM

>  <modifierSign>
=

>  <assayResult>
2.4

$$$$
>  <moleculeSmiles>
Cc1cccc2c(=O)n(C)c(-c3ccc(OC4CCN(C5CCC5)CC4)cc3)nc12

>  <system>
Alpha-1A adrenergic receptor (Homo sapiens, UniProt P35348)

>  <unitAbbrev>
µM

>  <modifierSign>
=

>  <assayResult>
10

$$$$

###

system: Histamine H4 receptor (Homo sapiens, UniProt Q9H3N8)
Sequence (Q9H3N8 whole entry): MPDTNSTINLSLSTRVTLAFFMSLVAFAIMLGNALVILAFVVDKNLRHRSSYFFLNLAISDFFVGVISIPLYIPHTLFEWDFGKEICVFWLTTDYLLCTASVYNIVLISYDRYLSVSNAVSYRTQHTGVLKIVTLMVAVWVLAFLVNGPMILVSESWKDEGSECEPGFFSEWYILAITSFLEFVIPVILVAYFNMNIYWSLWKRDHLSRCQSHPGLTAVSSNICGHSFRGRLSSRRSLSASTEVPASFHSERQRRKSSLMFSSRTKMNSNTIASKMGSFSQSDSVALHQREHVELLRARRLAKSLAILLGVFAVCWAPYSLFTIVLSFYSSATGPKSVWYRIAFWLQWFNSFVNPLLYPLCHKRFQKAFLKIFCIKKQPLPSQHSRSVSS
assay: Inhibition of human histamine H4 receptor
pIC50: −log10 of the molar value.
testReadout: pIC50

>  <moleculeSmiles>
COc1nccc2c(=O)n(C)c(-c3ccc(OC4CCN(C5CCC5)CC4)cc3)nc12

>  <system>
Histamine H4 receptor (Homo sapiens, UniProt Q9H3N8)

>  <testReadout>
pIC50

>  <assayResult>
< 5.00

$$$$

###

assay: AUC (0 to infinity) in Sprague-Dawley rat at 3 mg/kg, po
Assay type: ADME, organism-based
Design: time infinity, dose 3 mg/kg, route oral
assayContext: plasma
testReadout: AUC(0-inf) (µM·h)

>  <moleculeSmiles>
COc1nccc2c(=O)n(C)c(-c3ccc(OC4CCN(C5CCC5)CC4)cc3)nc12

>  <testReadout>
AUC(0-inf)

>  <assayResult>
2.1

$$$$
